Data provenance is patent US20260069689A1.

system: SARS-COV-2 RBD extracellular domain expressed with a C-terminal myc-myc-hexahistidine tag (SARS-CoV-2)
testName: SPR (Biacore), mAb captured by anti-human Fc, RBD-mmH in solution, 25 C
endpoint: Kd (nM)

>>> datavalue("mAb13458 (antibody, V domains shown) VH: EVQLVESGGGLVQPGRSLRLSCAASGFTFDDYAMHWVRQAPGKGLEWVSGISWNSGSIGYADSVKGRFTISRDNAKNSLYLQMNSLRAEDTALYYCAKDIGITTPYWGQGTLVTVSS VL: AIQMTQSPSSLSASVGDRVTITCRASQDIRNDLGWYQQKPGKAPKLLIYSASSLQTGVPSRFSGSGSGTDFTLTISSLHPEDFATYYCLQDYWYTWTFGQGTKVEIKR")
1.53
>>> datavalue("mAb15166 (antibody, V domains shown) VH: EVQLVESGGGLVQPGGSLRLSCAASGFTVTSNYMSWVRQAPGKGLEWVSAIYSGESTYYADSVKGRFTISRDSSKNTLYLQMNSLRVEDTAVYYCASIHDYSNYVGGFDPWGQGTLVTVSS VL: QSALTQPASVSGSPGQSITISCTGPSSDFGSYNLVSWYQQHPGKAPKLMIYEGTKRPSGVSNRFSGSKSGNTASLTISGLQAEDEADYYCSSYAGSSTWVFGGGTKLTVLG")
21.7
